measured-on: HLA-A*2902 (human)
assay-name: inhibition of 125I-labelled probe peptide binding to purified HLA, gel filtration; standard peptide
measured-property: pIC50
A value of pIC50 is the negative decimal logarithm of a concentration given in moles per litre.

Return reported pIC50; argument: YTAVVPLVY (modifications not checked) [standard peptide …] 8.30

Where do the numbers come from? From patent US20070014810A1.
